Molecular target: T1, human SLC34A2 (human, UniProt O95436 1-690)
T1 construct: whole, on cells; also called human solute carrier 34 A2; NaPi2b
T1 sequence (looked up): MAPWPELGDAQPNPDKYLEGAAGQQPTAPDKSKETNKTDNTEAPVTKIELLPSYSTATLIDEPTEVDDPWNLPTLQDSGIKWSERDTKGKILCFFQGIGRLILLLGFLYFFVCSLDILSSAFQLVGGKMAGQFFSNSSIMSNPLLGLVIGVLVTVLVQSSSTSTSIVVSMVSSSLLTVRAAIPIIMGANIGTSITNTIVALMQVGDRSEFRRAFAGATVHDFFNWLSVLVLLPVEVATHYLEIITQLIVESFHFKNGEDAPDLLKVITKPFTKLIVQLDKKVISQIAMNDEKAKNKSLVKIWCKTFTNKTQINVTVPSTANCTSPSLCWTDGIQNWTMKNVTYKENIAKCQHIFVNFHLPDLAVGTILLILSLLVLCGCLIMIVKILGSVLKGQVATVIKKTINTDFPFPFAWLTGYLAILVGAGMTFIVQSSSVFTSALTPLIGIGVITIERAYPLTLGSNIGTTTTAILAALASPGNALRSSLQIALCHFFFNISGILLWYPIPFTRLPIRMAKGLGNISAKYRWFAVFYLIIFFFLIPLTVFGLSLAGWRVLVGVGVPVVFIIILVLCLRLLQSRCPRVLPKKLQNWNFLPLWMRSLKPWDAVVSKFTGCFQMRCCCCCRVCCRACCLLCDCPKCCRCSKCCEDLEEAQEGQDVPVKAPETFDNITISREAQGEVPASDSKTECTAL
Assay: FACS, RMG-1 cells
MEASURE_NAME: Top (MFI)
Only the number, expressed in MFI, is required.

Look over these answered cases.
| BINDER | Top (MFI) |
| --- | --- |
| xi16E5D10 hIgG1 (antibody, V domains shown, chimeric, hIgG1) VH: QVQLQQPGAELVKPGASVMMSCKASGYTFSNHNLHWLKKTPGQGLDWIGAIYPGNGDTSYNQKFKGRATLTVDKSSNTAYMQFSSLTSEDSAVFYCARGKYGNGAMDYWGQGTAVTVSS VL: DIVMTQSHKFMSTSVGDRVSITCRASQDVGTAVVWYQQKLGQSPKLLFDWASSRHTGVPDRFTGSGSGTDFTLTITDVQSEDLADYFCQQYSRQPLTFGAGTKLELK | 9500 |
| xi87H12B7 hIgG1 (antibody, V domains shown, chimeric, hIgG1) VH: QVQLQQPGAEVVRPGASVKMSCKASGYTFTSYIVHWVKQPPGQGLEWIGAIYPGNGDTSYIQKFKGRATLTADKSSSTVYMQLSSLTSEDSAVYYCARGHYYGSAAWFGFWGQGTLVTVSA VL: DILLTQSPAILSVSPGERVSFSCRASQNIGTSIHWYQQRTNDSPRLLMRYASESVSGIPSRFSGSGSGTDFTLSINSVESEDIADYYCQQSNTWPLTFGAGTKLELK | 9660 |
| xi94E9B12 hIgG1 (antibody, V domains shown, chimeric, hIgG1) VH: QVQLQQPGAELVKPGASVKMSCKASGYTFTSYNMQWVKQTYGQGLEWIGAISPGSGETSYNQNFKVKATLTADKISSTAYMQLSSLTSEDSAVYYCARAARAEGWFAYWGQGTLVTVSA VL: DIVMTQSHKFMSTSVGDRVSITCKASQDVGHAVVWYQQKPGQFPKLLIYWASTRHAGVPDRFTGSGSGTDFTLTISNVQSEDLADYFCQQFRSIPLTFGSGTKLEIK | 10000 |

QUERY: Please give the measured Top (MFI) for this binder: xi94B10A8 hIgG1 (antibody, V domains shown, chimeric, hIgG1) VH: QVQLQQTGAELVKPGASVKMSCKASGYTFTGYIIHWIKQRPGQGLEWIGAIYPGNGDTSYNQKIKGRATLTADKSSTTAYMQLSSLTSEDSAVYYCARGDYGNPAWFAYWGQGTLVTVSA VL: DVVLTQSPATLSVTPGDRVSLSCRASQSISNYLYWYQQKAHESPRLLIKFASQSISGIPSRFRGSGSGTDFTLSINSVETEDFGMYFCQQSNKWPLTFGAGTKLELK
RESULT: 9370
